Numbers sourced from patent US20220175925A1.

Test system: Hut102 ATL cell line
Test: PDT using 5-ALA, cell survival rate by Cell Counting Kit-8, Hut102
Format: cell-based
Details: HuT-102, light or radiation study, 4 h, Hut102; 100 J/cm^2 at 630 nm; 5-ALA loaded 4 hours
endpoint: pEC50
pEC50 here: minus log base 10 of the concentration, concentration in moles per litre.

Problem: // returns reported pEC50 for input NCC(=O)CCC(=O)O [5-ALA, 5-aminolevulinic acid]
Result: 3.76

====

Tested on: MT-1 ATL cell line
Experiment: PDT using 5-ALA, cell survival rate by Cell Counting Kit-8, MT-1
Format: cell-based
Settings: light or radiation study, 4 h, 30 J/cm^2 at 630 nm, 5-ALA loaded 4 hours
endpoint: EC50 (µM)
Number in µM, nothing else.

Problem: Recorded EC50 of NCC(=O)CCC(=O)O [5-ALA, 5-aminolevulinic acid] , please.
Result: 202

====

Test system: Hut102 ATL cell line
Test: PDT using 5-ALA, cell survival rate by Cell Counting Kit-8, Hut102
Type: cell-based
Conditions: HuT-102, light or radiation study, 4 h, Hut102; 10 J/cm^2 at 630 nm; 5-ALA loaded 4 hours
endpoint: pEC50
In textbook form, pEC50 equals minus log to base ten of the concentration in mol/L.

Problem: Look up pEC50: "NCC(=O)CCC(=O)O"
Result: 3.36
